Exercise: for every item that follows, state its recorded pEC50.
target: human GPR40 (Homo sapiens); assay: FDSS-based intracellular calcium assay (Human GRP40 in vitro assay); type: cell-based; parameters: 3xFLAG; expressed in transfected cells; details: cells expressing GPR40, intracellular Ca2+ response, FDSS reader; read-out: hGPR40 EC50
Sequence (O14842 whole entry): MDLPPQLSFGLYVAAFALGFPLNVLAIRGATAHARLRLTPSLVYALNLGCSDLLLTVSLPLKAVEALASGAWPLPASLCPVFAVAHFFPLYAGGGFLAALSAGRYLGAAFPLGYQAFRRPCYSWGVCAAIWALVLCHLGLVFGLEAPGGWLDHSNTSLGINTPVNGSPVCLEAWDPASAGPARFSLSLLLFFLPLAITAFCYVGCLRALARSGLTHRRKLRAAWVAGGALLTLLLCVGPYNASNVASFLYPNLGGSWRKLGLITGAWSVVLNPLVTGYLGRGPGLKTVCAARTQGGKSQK
Where a name gives a salt, the structure may show the parent alone.
Numbers only, as −log10 of the molar value.

Example compounds with recorded pEC50:
Compound: CCOc1ccc(F)c(N2CCC(Oc3ccc(N4C[C@H](Oc5cccc(OC(F)(F)F)c5)C[C@@H]4CC(=O)O)cc3)CC2)c1
pEC50: 6.85

Compound: CCOc1ccc(F)c(N2CCC(Oc3ccc(N4C[C@H](C#N)C[C@@H]4CC(=O)O)cc3)CC2)c1 [Example 130, TFA]
pEC50: 5.68

Compound: COc1cc(N2CCC(Oc3ccc(N4C[C@H](OC)C[C@@H]4CC(=O)O)cc3)CC2)c(F)cc1CC(C)C [Example 30, TFA]
pEC50: 6.08

For this compound ( COc1ccc(C2CCCC2)c(N2CCC(Oc3ccc(N4C[C@H](OC)C[C@@H]4CC(=O)O)cc3)CC2)c1 ), measured pEC50 is 6.92

----------
target: human GPR40 (Homo sapiens); assay: FDSS-based intracellular calcium assay (Human GRP40 in vitro assay); assay type: cell-based; set-up: 3xFLAG; expressed in transfected cells; settings: cells expressing GPR40, intracellular Ca2+ response, FDSS reader; read-out: hGPR40 EC50
Counter-ions that a name gives are not always drawn.
Exercise: for every item that follows, state its recorded EC50.
Write the numeric value and append its unit.

Example compounds with recorded EC50:
Compound: COc1ccc(C2CC2)c(N2CCC(Oc3ccc(N4C[C@H](OC)C[C@@H]4CC(=O)O)cc3)CC2)c1 [Example 59, TFA]
EC50: 0.29 µM

Compound: COc1ccc(F)c(N2CCC(Oc3ccc(N4C[C@H](C(F)(F)F)C[C@@H]4CC(=O)O)cc3)CC2)c1 [Example 1, HCl]
EC50: 0.21 µM

Please give EC50, item by item, for the list that follows.
1. COc1ccc(F)c(N2CCC(Oc3ccc(N4C[C@H](OC)C[C@@H]4CC(=O)O)cc3)CC2C)c1 (single isomer, unassigned) [Example 13, Isomer 2, HCl]
2. CCOc1ccc(F)c(N2CCC(Oc3ccc(N4C[C@H](OC)[C@@H](C)[C@@H]4CC(=O)O)cc3F)C(C)C2)c1 (some centres unmarked) [Example 100]

0.16 µM
0.11 µM

Please give EC50, item by item, for the list that follows.
1. COc1ccc(F)c(N2CCC(Oc3ccc(N4C[C@H](Cc5ccccc5)C[C@H]4CC(=O)O)cc3)CC2)c1 [Example 8, HCl]
2. COc1ccc(F)c(N2CCC(Oc3ccc(N4C[C@H](Oc5ccccc5)C[C@@H]4CC(=O)O)cc3)CC2)c1 [Example 6, HCl]
3. COc1cc(N2CCC(Oc3ccc(N4C[C@H](OC)C[C@@H]4CC(=O)O)c(F)c3)C(C)C2)c(Cl)cn1 (some centres unmarked) [Example 139]
4. COc1ccc(F)c(N2CCC(Oc3ccc(N4CC(C(F)(F)F)C(C)C4CC(=O)O)cc3)CC2)c1 (single isomer, unassigned) [Example 26, Isomer 1, HCl]
5. COc1cc(N2CCC(Oc3ccc(N4C[C@H](OC)C[C@@H]4CC(=O)O)cc3)CC2)c(F)cc1Cc1ccccc1 [Example 23, TFA]
6. COc1ccc(F)c(N2CCC(Oc3ccc(N4C[C@H](OC)C[C@@H]4CC(=O)O)cc3)C(C)C2)c1 (single isomer, unassigned) [Example 52, Isomer 2]

1. 0.42 µM
2. 0.19 µM
3. 0.23 µM
4. 0.22 µM
5. 3.2 µM
6. 0.6 µM

Please give EC50, item by item, for the list that follows.
1. COc1ccc(F)c(N2CCC(Oc3ccc(N4C[C@H](OC)C[C@@H]4CC(=O)O)cc3)C(C)C2)c1 (single isomer, unassigned) [Example 17, Isomer 1]
2. CCOc1ccc(F)c(N2CCC(Oc3ccc(N4CC(C)(OC)C[C@@H]4CC(=O)O)cc3)C(C)C2)c1 (some centres unmarked) [Example 47, HCl]
3. COc1cc(N2CCC(Oc3ccc(N4C[C@@H](OC)[C@H](C)[C@H]4CC(=O)O)cc3)C(C)C2)c(Cl)cn1 (some centres unmarked) [Example 131]
4. COc1ccc(C2CCC2)c(N2CCC(Oc3ccc(N4C[C@H](OC)C[C@@H]4CC(=O)O)cc3)CC2)c1 [Example 82, HCl]
5. COc1cc(N2CCC(Oc3cc(F)c(N4C[C@H](OC)C[C@@H]4CC(=O)O)c(F)c3)C(C)C2)c(Cl)cn1 (some centres unmarked) [Example 144, TFA]
6. COc1cccc(N2CCC(Oc3ccc(N4C[C@H](C(F)(F)F)C[C@@H]4CC(=O)O)cc3)CC2)c1 [Example 19, HCl]
7. CCOc1cccc(N2CCC(Oc3ccc(N4C[C@H](C(F)(F)F)C[C@@H]4CC(=O)O)cc3)CC2)c1 [Example 21, HCl]

0.34 µM
0.17 µM
4.7 µM
0.31 µM
3.4 µM
0.68 µM
0.85 µM
